Measured Kd by item
Biological target: T1, HuCD3E (Homo sapiens, UniProt P07766 23-126, limits assumed)
T1 construct: Recombinant analyte in SPR and antigen in ELISA; also called human CD3; human CD3 epsilon
T1 sequence (P07766 23-126 limits assumed): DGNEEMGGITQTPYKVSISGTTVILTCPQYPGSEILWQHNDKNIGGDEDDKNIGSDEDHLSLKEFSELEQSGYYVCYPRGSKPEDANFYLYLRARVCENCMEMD
Experiment: SPR, Biacore 8K; CD3 Affinity column: Med; lower end of the range

Below are worked cases with known answers.
47D10-V7-v5.4 (antibody, V domains shown) VH: EVQLVESGGGLVQPGGSLKLSCAASGFTFNTYAMNWVRQAPGKGLEWVARIRSKYNNYATYYWDSVKDRFTISRDDSKNTAYLQMNSLKTEDTAVYYCVRHGNFGNSYVSWFAYWGQGTLVTVSS VL: QTVVTQEPSLTVSPGGTVTLTCRSSTGAVTTSNYANWVQQKPGQAFRGLIGGTNKRAPGVPARFSGSLLGGKAALTLSGVQPEDEAIYFCALWYSNLWVFGGGTKLTVL = ≥ 10 nM
32G4-V8-v5.2 (antibody, V domains shown) VH: EVQLVESGGGLVQPGGSLKLSCAASGFTFNTYAMNWVRQAPGKGLEWVARIRSKYNNYATYKADSVKDRFTISRDDSKNTAYLQMNSLKTEDTAVYYCVRHGNFGNSYVSWFAYWGQGTLVTVSS VL: QTVVTQEPSLTVSPGGTVTLTCRSSTGAVTTSNYANWVQQKPGQAFRGLIGGTNKRAPGVPARFSGSLLGGKAALTLSGVQPEDEAIYFCALWYSNLWVFGGGTKLTVL = ≥ 10 nM

Kd measured on 47D10-V7-v5.3 (antibody, V domains shown) VH: EVQLVESGGGLVQPGGSLKLSCAASGFTFNTYAMNWVRQAPGKGLEWVARIRSKYNNYATYYADKVKDRFTISRDDSKNTAYLQMNSLKTEDTAVYYCVRHGNFGNSYVSWFAYWGQGTLVTVSS VL: QTVVTQEPSLTVSPGGTVTLTCRSSTGAVTTSNYANWVQQKPGQAFRGLIGGTNKRAPGVPARFSGSLLGGKAALTLSGVQPEDEAIYFCALWYSNLWVFGGGTKLTVL = ≥ 10 nM

// provenance: patent US20250340637A1
